Reference for the values: the RNAGym collection of RNA variant scans (doi:10.1126/science.aae0568)

Kindly supply the reported yeast fitness values for the records listed here.
B1: tRNA (parent)
chain: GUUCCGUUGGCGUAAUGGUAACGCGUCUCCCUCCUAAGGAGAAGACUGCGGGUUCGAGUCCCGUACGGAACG

Variants of: B1
Assay: yeast fitness relative to wild type (ratio to wild type); higher = fitter; tRNA-Arg(CCU), competitive growth, 37 C, YPD
This sample holds only a part of the variants without activity.
Give bare numbers.

Annotate the variant C33U C61A G63C A65G with its measured yeast fitness. 0.549

Annotate the variant G9A C29A A37G G58A with its measured yeast fitness. 0.571

Annotate the variant C46U C61U with its measured yeast fitness. 0.956

# map each variant to its yeast fitness
1. A14G C30G A45G
2. U32C A40G C49G
3. U19G U32G
4. G6A A20C A70U

0.585
0.514
0.62
0.739

# map each variant to its yeast fitness
1. G10C C46U A65C
2. A15G C66A
3. A21G G56A G67A
4. G17A G18C
5. C46A G48C U59G
6. C24A U54C

1: 0.621; 2: 0.657; 3: 0.654; 4: 0.63; 5: 0.534; 6: 0.634

# map each variant to its yeast fitness
1. A15G G25C C55U
2. U8C C30A
3. G9A U28C
4. G17C C55G
5. A57C A69C
6. A37U U47A
7. G25A G41A C49U A69U
8. C34U C49U

1. 0.562
2. 0.948
3. 0.855
4. 0.616
5. 0.608
6. 0.796
7. 0.574
8. 0.866

# map each variant to its yeast fitness
1. G10C C49G
2. G38C C60G
3. G9A A40U
4. C4U C33U
5. A21U A36U A65G
6. C11A G18A C46U

1. 0.619
2. 0.567
3. 1.06
4. 0.789
5. 0.589
6. 0.61
